tested on: ATS189; assay: qHTS profiling for inhibitors of Plasmodium falciparum proliferation (AID 504749); also: nearly all actives have a fitted effect of over 60% in size; also: potency is read from the fitted curve at half-maximal effect; conditions: P. falciparum in erythrocytes, SYBR Green DNA, 72 h; series mostly up to 28.7 µM
Inconclusive results are not listed. Activity calls are given as the source filed them. Calls follow the shape of the dose curve; as a rule, active = well fitted inhibition curve with a large enough effect; inconclusive = small, poorly fitted or top-dose-only effect; inactive = flat fitted curve, though single readings scatter.
reportedProperty: Potency

CC(C)(C)CC(C)(C)c1ccc(OCCO)cc1
inactive
OCCOCCOCCO
inactive
S=C1SCN(Cc2ccccc2)CN1Cc1ccccc1
inactive
CCCCCCCCCCCCCC(=O)OCC(COP(=O)([O-])OCC[N+](C)(C)C)OC(=O)CCCCCCCCCCCCC (stereo not given)
inactive
O=C(O)CCC(=O)c1ccc(-c2ccccc2)cc1
inactive
CNC(=O)C[C@@H](N)C(=O)N[C@@H](C(=O)N[C@@H]1C(=O)N2[C@@H]1SC(C)(C)[C@@H]2C(=O)O)c1ccc(O)cc1
inactive
CC(C)c1ncc([N+](=O)[O-])n1C
inactive
CCOc1ccc(S(=O)(=O)O)c2cccnc12
inactive

[Q] Provide only the value of recorded Potency for CC(=O)Nc1ccc(NC(=S)NC(=O)c2ccc(C(C)(C)C)cc2)cc1
[A] inactive

[Q] Provide only the value of recorded Potency for CS(=O)(=O)c1ccc([C@@H](O)[C@@H](COC(=O)CN)NC(=O)C(Cl)Cl)cc1
[A] inactive

###

test system: CP237; test: qHTS profiling for inhibitors of Plasmodium falciparum proliferation (AID 504749); also: nearly all actives have a fitted effect of over 60% in size; conditions: P. falciparum in erythrocytes, SYBR Green DNA, 72 h; series mostly up to 28.7 µM
Results filed as inconclusive are left out. Activity calls are given as the source filed them. Calls come from the whole dose curve; as a rule, active = well fitted inhibition curve with a large enough effect; inconclusive = small, poorly fitted or top-dose-only effect; inactive = flat fitted curve, though single readings scatter.
Tick one outcome: Yes = active, No = inactive

OCCCNc1ccccc1
No
CN(CCO)CC(O)Cn1cnc2c1c(=O)n(C)c(=O)n2C (configuration not stated) (tested in a mixture with another compound)
No
OCl
No
CC(C)(CO)[C@@H](O)C(=O)NCCC(=O)NCCSSCCNC(=O)CCNC(=O)[C@H](O)C(C)(C)CO
No
CC(=O)Oc1cc(C(F)(F)F)ccc1C(=O)O
No

[Q] Can you look up the reported call for CCCCCCCCCCCCCCCCCC(=O)OCC(C)O (configuration not stated) for me?
[A] No

[Q] Can you look up the reported call for C=C1C(CCl)(CCl)C2(Cl)C(Cl)C(Cl)C1(Cl)C2(Cl)Cl (configuration not stated) for me?
[A] Yes

[Q] Can you look up the reported call for O=C1[O][Bi][O]c2ccccc21 for me?
[A] No

[Q] Can you look up the reported call for O=C(O)Cc1nn(Cc2ccc(Br)cc2F)c(=O)c2ccccc12 for me?
[A] No

[Q] Can you look up the reported call for CCc1ccc(S(=O)(=O)O)cc1 for me?
[A] No

[Q] Can you look up the reported call for CCC(C(=O)NC(N)=O)c1ccccc1 (configuration not stated) for me?
[A] No

[Q] Can you look up the reported call for COc1ccccc1N1CCN(CCCC(=O)c2ccc(F)cc2)CC1 for me?
[A] No

###

test system: CP325; experiment: qHTS profiling for inhibitors of Plasmodium falciparum proliferation (AID 504749); also: nearly all actives have a fitted effect of over 60% in size; conditions: P. falciparum in erythrocytes, SYBR Green DNA, 72 h; series mostly up to 28.7 µM
Results filed as inconclusive are left out. Calls of active or inactive are those of the source. Calls come from the whole dose curve; as a rule, active = well fitted inhibition curve with a large enough effect; inconclusive = small, poorly fitted or top-dose-only effect; inactive = flat fitted curve, though single readings scatter.
reportedProperty: outcome

CCCCC/C=C\C/C=C\C/C=C\CCCCC(=O)O
inactive
OC[C@H]1O[C@@H]2O[C@H]3[C@H](O)[C@@H](O)[C@@H](O[C@H]4[C@H](O)[C@@H](O)[C@@H](O[C@H]5[C@H](O)[C@@H](O)[C@@H](O[C@H]6[C@H](O)[C@@H](O)[C@@H](O[C@H]7[C@H](O)[C@@H](O)[C@@H](O[C@H]1[C@H](O)[C@H]2O)O[C@@H]7CO)O[C@@H]6CO)O[C@@H]5CO)O[C@@H]4CO)O[C@@H]3CO
inactive
Nc1nc(=O)n([C@@H]2CS[C@H](CO)O2)cc1F
inactive
